Data origin: ChEMBL document CHEMBL1201862

- Tested on: DMS-273
- procedure-details: NCI tumour cell line growth inhibition, 48 h
The source made the active and inactive calls. Rule as the data show it: active = GI50 up to about 1.1 µM and inactive = higher.
result-type: GI50

compound | result-type | measured-result
O=C1c2ccccc2CC1C1(O)C(=O)Nc2c(Cl)cc(Cl)cc21 (centres undefined) | GI50 | 68.4 µM (inactive)
O=C(CSc1nc(-c2ccccc2)c(-c2ccccc2)[nH]1)N/N=C/c1ccc([N+](=O)[O-])cc1 | GI50 | 14.1 µM (inactive)
O=C(CSSCC(=O)Nc1ccc(Br)cc1)Nc1ccc(Br)cc1 | GI50 | 16.5 µM (inactive)
O=C1/C(=C/c2ccccc2)CN(C(=O)Oc2ccc(Cl)cc2)C/C1=C\c1ccccc1 | GI50 | 1.83 µM (inactive)

# map each compound to its GI50
1. COC(=O)NN1C(C)=C(C(=O)OC)C2(C#N)C(C(=O)OC)=C(C)N(NC(=O)OC)C12N (centres undefined)
2. COc1ccc(OC)c(NCC#N)c1
3. OCC1OC(c2nc(C3=NCCCN3)cs2)C(O)C1O (centres undefined)
4. CCC(COC(=O)CC[C@@H](NC(=O)C(C)NC(=O)C(C)OC1C(O)C(CO)OC(OCc2ccccc2)C1NC(C)=O)C(N)=O)NC1c2ccccc2Nc2cccc([N+](=O)[O-])c21 (some centres undefined)
5. Cn1c(=O)nc2n(-c3ccc(Br)cc3)c3ccccc3nc-2c1=O

["> 100 µM (inactive)", "> 100 µM (inactive)", "> 100 µM (inactive)", "> 100 µM (inactive)", "1.88 µM (inactive)"]
